# TARGET OF ASSAY: HiBiT-tagged MDM2 (Homo sapiens, UniProt Q00987)
# Construct: expressed in transfected cells
# Sequence (Q00987 whole entry): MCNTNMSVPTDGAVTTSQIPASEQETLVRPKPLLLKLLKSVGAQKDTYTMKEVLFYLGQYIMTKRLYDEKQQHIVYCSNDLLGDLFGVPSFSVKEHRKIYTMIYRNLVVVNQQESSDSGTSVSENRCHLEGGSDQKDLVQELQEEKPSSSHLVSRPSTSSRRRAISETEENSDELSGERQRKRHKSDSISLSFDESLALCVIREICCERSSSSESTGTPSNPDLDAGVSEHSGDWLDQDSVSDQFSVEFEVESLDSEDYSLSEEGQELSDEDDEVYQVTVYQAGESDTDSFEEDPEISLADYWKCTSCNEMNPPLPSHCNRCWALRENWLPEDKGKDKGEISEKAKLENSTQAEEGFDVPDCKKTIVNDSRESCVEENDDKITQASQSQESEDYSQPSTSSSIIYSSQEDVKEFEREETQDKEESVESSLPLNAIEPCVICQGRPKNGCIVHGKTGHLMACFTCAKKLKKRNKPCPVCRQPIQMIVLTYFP
# TEST DESCRIPTION: MDM2 HiBit HEK293T degradation
# Format: cell-based
# CONDITION SET: HEK293T cells stably expressing C-terminally HiBiT-tagged MDM2; 4 h; read-out: MDM2 HiBit HEK293T degradation 4 h: Average external-Abs DC50
Entries and their DC50

Task: DC50 for Cn1c(=O)n(C2CCC(=O)NC2=O)c2ccc(CN3CC(OC4CCN(C[C@H]5CC[C@H](NC(=O)[C@@H]6NC7(CCCCC7)[C@@]7(C(=O)Nc8cc(Cl)ccc87)[C@H]6c6cccc(Cl)c6F)CC5)CC4)C3)cc21 (stereo partly drawn) ?
Output: < 10 nM

Task: # input compound: COc1cc2c(cc1OC(C)C)[C@H](c1ccc(Cl)cc1)N(c1ccc(N(C)CC3CCN(CCCCc4ccc5c(c4)n(C)c(=O)n5C4CCC(=O)NC4=O)CC3)cc1)C(=O)C2 (stereo partly drawn) ; wanted: its DC50
Output: 10 to 100 nM

Task: Which DC50 value belongs to Cn1c(=O)n(C2CCC(=O)NC2=O)c2ccc(C3CCN(CCC(=O)N4CCC(NC(=O)[C@@H]5NC6(CCCCC6)[C@@]6(C(=O)Nc7cc(Cl)ccc76)[C@H]5c5cccc(Cl)c5F)CC4)CC3)cc21 (stereo partly drawn) ?
Output: < 10 nM

Task: Looking for the measured DC50 of Cn1c(=O)n(C2CCC(=O)NC2=O)c2ccc(CN3CCN(C[C@H]4CC[C@H](NC(=O)[C@@H]5NC6(CCCCC6)[C@@]6(C(=O)Nc7cc(Cl)ccc76)[C@H]5c5cccc(Cl)c5F)CC4)C(C(=O)O)C3)cc21 (stereo partly drawn) , can you help?
Output: 10 to 100 nM
